List of Percent Effect values.
Biological target: Tyrosyl-tRNA synthetase, putative (Trypanosoma cruzi (strain CL Brener))
Sequence (whole entry): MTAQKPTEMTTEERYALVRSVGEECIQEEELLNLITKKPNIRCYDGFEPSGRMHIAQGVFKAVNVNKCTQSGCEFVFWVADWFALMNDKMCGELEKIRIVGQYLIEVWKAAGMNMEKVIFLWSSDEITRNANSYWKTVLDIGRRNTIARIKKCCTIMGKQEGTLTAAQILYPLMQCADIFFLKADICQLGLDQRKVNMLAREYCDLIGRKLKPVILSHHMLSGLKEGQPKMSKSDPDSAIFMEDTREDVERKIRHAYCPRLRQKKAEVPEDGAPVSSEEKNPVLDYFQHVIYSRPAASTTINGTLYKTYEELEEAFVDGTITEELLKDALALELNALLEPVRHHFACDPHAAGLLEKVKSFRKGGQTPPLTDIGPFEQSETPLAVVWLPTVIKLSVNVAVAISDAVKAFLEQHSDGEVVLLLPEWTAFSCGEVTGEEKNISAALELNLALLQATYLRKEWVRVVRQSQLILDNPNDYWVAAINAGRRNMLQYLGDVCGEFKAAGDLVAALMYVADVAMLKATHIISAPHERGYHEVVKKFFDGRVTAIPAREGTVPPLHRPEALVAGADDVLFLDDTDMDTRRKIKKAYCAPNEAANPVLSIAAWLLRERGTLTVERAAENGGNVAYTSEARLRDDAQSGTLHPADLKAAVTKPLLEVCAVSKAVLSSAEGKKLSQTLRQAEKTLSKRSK
Assay: Trypanosoma cruzi tyrosyl tRNA synthetase (TcYRS) _High Tyrosine SOP
Type: functional
Parameters: scale not given: in the data most compounds retested in dose-response had high values
Settings: 30 µM

Compound	Readout Units	Percent Effect
Cn1cc(C(=O)NCc2cn3c(n2)CN(CC2CCOCC2)CC3)cn1	%	7.92
O=C(NCc1ccc(F)cc1)N1CCC(C2OCCO2)CC1	%	6.38
CC(C(=O)Nc1cccc(N2CCCCC2)c1)n1cncn1 (configuration not stated)	%	5.42
Cn1c(CN2CCN(CC3CC3)CC2)nnc1C1CCC1	%	-2.15
CC(C)c1nc2c(n1C)CCN(CC(=O)Nc1ccc(Cl)cn1)C2	%	4.76
Cc1cc(NC(=O)NCCc2cccs2)n(C)n1	%	0
CCCS(=O)(=O)N1CCC2(CN(c3ccsc3)C(=O)CN2C)C1 (configuration not stated)	%	9.9
CCCNC(=O)C1CCN(Cc2csc(C(C)(C)C)n2)CC1	%	-0.493
Cc1nc(CN2C(=O)C[C@@H]3[C@@H]2CCN3C(=O)C2CCOCC2)cs1	%	1.04
Cc1ccc(CN2CCc3ncnc(-c4cccnc4)c3CC2)o1	%	2.08
COc1nn(C)cc1C(=O)N1CCC(c2nnc(C3CC3)o2)CC1	%	8.47
O=C(CC1CC1)N1CCC2(CC1)CN(c1ncccn1)CCO2	%	-5.32
CCN(C(=O)CS(=O)(=O)Cc1cc(Cl)c2c(c1)OCCCO2)C1CC1	%	3.45
Cc1cc(N2CCN(Cc3ccc(C)o3)CC2)cc(C)n1	%	8.2
Cc1csc(CNC(=O)NCC(O)c2cccc(Cl)c2)n1 (configuration not stated)	%	3.7
CO[C@@H]1CC[C@H]2[C@H]1OCCN2C(=O)c1ccc(C)o1	%	-3.17
CN(CC1(O)CCCCC1)C1CCCN(Cc2noc(C3CC3)n2)C1 (configuration not stated)	%	4.43
CN(C)CCN1CCO[C@@H]2CN(C(=O)c3cccs3)CC[C@@H]2C1	%	1.08
COCC(=O)N1CCN(C(=O)c2scnc2C)CC1	%	1.06
CC(C)C(C(=O)N1CCN(c2ccncc2)CC1)n1cncn1 (configuration not stated)	%	4.3
CC(=O)N(Cc1noc(C2CC2)n1)C1CCN(Cc2cccnc2)C1 (configuration not stated)	%	4.95
CN(C)S(=O)(=O)N1CCC2(COCc3cnc(-c4ccccc4)nc32)C1 (configuration not stated)	%	-8.33
COc1ccc(CNC(C)c2ccc3[nH]c(=O)[nH]c3c2)cc1 (configuration not stated)	%	1.48
O=C(Cc1ccc2c(c1)CCCC2)NCCc1ccccn1	%	7.39
O=C(NCCn1ccnc1)c1ccn(-c2cccc(F)c2)n1	%	0.493
CCOCC1CN(S(C)(=O)=O)Cc2ncn(CC3CC3)c21 (configuration not stated)	%	6.45
Cc1csc([C@@H]2C[C@@H]3CCN(C(=O)c4ccnnc4)C[C@H]3O2)n1	%	6.35
O=S(=O)(c1cccs1)N1CCCn2nnc(CN3CCCCC3)c2C1	%	-1.04
CN(C(=O)Cn1nc(-c2ccc(F)cc2)oc1=O)C1CCS(=O)(=O)C1 (configuration not stated)	%	2.1
O=C(NCC1CC1)[C@H]1C[C@@H]2CCN(Cc3nccs3)C[C@@H]2O1	%	8.65
c1cnc(-c2nc(CN3CCCC(Cn4cncn4)C3)cs2)nc1 (configuration not stated)	%	6.4
CN(CCC(F)(F)F)C(=O)C1CCCN1C(=O)OC(C)(C)C (configuration not stated)	%	3.23
Cc1ccc(C(=O)NCCCNS(C)(=O)=O)c(=O)[nH]1	%	10.9
COCCCn1c(CN2CCCC(O)C2)cnc1S(=O)(=O)C1CCCC1 (configuration not stated)	%	3.23
COc1cc(C)sc1C(=O)N1CC(c2cccnc2)C1	%	1.59
Cn1ccc(C(=O)N2CCC(Cc3cccc4cccnc34)C2)n1 (configuration not stated)	%	5.38
O=C(c1ccco1)N1CCOCC2(C1)CN(c1ccccc1)C(=O)CO2 (configuration not stated)	%	2.08
CCNC(=O)[C@@H]1C[C@H](NC(=O)c2ccccc2C#N)CN1CCCSC	%	2.08
CCN(CC(=O)NC(C)C)S(=O)(=O)N1CCCCCC1	%	3.23
Cc1cc(C)n(C2CCCN(C(=O)c3cccc4[nH]ncc34)C2)n1 (configuration not stated)	%	6.93
O=S1(=O)C[C@@H]2[C@H](C1)N(Cc1ncc[nH]1)CCN2CC1CC1	%	5.82
CN1CCCC(CNC(=O)N2CCN(Cc3ccon3)CC2)C1 (configuration not stated)	%	4.92
Cc1ccc2c(ccn2CC(=O)NC[C@@H]2CCCN3CCCC[C@H]23)c1	%	4.23
COCCN1CCC(NCc2cccc(F)c2)C1 (configuration not stated)	%	5.83
Cc1cccc(Cn2c3c(ccc2=O)CCN(Cc2ccoc2)CC3)n1	%	4.17
COC(=O)c1ccc2ccn(CC3CCCO3)c(=O)c2c1 (configuration not stated)	%	4.3
O=C1COC2(COCCN(Cc3cccnc3)C2)CN1c1ccoc1 (configuration not stated)	%	0
